Target: T1, UL131A expressed from MVA in BHK-21 cells (human cytomegalovirus, UniProt F5HET4 19-129)
T1 construct: whole, on cells
T1 sequence (F5HET4 19-129 limits assumed): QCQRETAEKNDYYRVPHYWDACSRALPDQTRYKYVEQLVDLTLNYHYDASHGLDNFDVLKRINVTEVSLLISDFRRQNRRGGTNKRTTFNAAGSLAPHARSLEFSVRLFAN
Assay: intracellular FC, MVA-infected BHK-21
Quantity name: binding result

| Binder | Result |
| --- | --- |
| 13B5 (antibody, V domains shown, also called NAb 13B5; 1365) VH: QVTLKESGPGILKPSQTLSLTCSFSGFSLTTSGLGVGWIRQPSGKGLEWLAHIWWDDDKYFNPSLRNQLTISKDTSRNQVFLEITSVTTADTATYYCVRSLYDYDEGYYFDSWGQGTTLTVSS VL: EIVMIQSPATLSVNPGDRVSLSCRASQSISDYLHWYQQKSHESPRLLIKYASQSISGIPSRFSGSGSGSDFTLSINSVEPEDVGVYYCQNGHTFPPTFGGGTKLEIK | no binding |
| 18F10 (antibody, V domains shown, also called NAb 18F10) VH: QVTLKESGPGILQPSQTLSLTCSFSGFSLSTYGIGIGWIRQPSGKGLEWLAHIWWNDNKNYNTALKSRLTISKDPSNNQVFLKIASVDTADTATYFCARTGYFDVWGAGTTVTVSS VL: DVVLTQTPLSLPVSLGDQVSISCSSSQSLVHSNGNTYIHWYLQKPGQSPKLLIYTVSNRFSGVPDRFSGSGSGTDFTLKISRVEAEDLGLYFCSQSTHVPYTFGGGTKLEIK | no binding |
